- experimental_system: HLA-B*46:01
- measurement_notes: IEDB peptide-MHC binding, purified MHC/competitive/fluorescence; filed as Kd, often an IC50 or EC50 that approximates it; bounds were set here for any values at or beyond the usual limits of such assays
- recorded_conditions: source organism: Araucaria virus

sequence_text	Kd
AFMATNKAY	≥ 20 µM

* * *

- experimental_system: HLA-B*39:01
- measurement_notes: IEDB peptide-MHC binding, purified MHC/competitive/fluorescence; filed as Kd, often an IC50 or EC50 that approximates it; bounds were set here for any values at or beyond the usual limits of such assays
- recorded_conditions: source organism: Bos taurus
pKd: −log10 of the molar value.
reported_metric: pKd

sequence_text	result
KLGEGFKSL	≤ 4.70
